Sourced from patent US11339171B2

assay: Pharmacokinetics in ICR mice after intravenous and intragastric administration; assay type: in vivo; details: ICR mice, PO 5 mg/kg vs IV 2 mg/kg, mean
MEASURED PROPERTY: F* (%)
The reply should be a number in %, with the unit left off.

In plain terms, COc1nc(N(C)C)ncc1-c1nc2c(n1C(C)C)[C@@]1(C(=O)Nc3cc(Cl)ccc31)N(c1cc(Cl)cnc1C)C2=O has a documented F* of 48.91

The compound listed as COc1nc(C2CC2)ncc1-c1nc2c(n1C(C)C)[C@@]1(C(=O)Nc3cc(Cl)ccc31)N(c1cc(Cl)cnc1C)C2=O has a reported F* of 52.53

Recorded result, COc1nc(OCCF)ncc1-c1nc2c(n1C(C)C)[C@@]1(C(=O)Nc3cc(Cl)ccc31)N(c1cc(Cl)ccc1C)C2=O , F*: 72.11

----------
experiment: Pharmacokinetics in ICR mice after intravenous and intragastric administration; assay type: in vivo; details: male, ICR, mouse, plasma, iv, 2 mg/kg, IV 2 mg/kg, ICR mice, Mean; read-out: Vz
Measured Vd, listed per entry.
State just the number; it will be interpreted in L/kg.

Previously resolved entries follow.
1) COc1cc(N(C)C)ccc1-c1nc2c(n1C(C)C)[C@@]1(C(=O)Nc3cc(Cl)ccc31)N(c1cc(Cl)ccc1C)C2=O [Example S-23] | 0.58
2) COc1ncc(-c2nc3c(n2C(C)C)[C@H](c2ccc(Cl)cc2)N(c2cc(Cl)cn(C)c2=O)C3=O)c(OC)n1 [HDM201, reference compound] | 2.8
3) COc1ncc(-c2nc3c(n2C(C)C)[C@@]2(C(=O)Nc4cc(Cl)ccc42)N(c2cccc(Cl)c2)C3=O)c(OC)n1 [Example S-1] | 4.54

For COc1cc(OC)c(-c2nc3c(n2C(C)C)[C@@]2(C(=O)Nc4cc(Cl)ccc42)N(c2cc(Cl)ccc2C)C3=O)cn1 [Example S-11] the compound record lists Vd as 1.06

The compound listed as COc1ncc(-c2nc3c(n2C(C)C)[C@@]2(C(=O)Nc4cc(Cl)ccc42)N(c2cc(Cl)ccc2C)C3=O)c(OC)n1 [Example S-2] shows Vd equal to 1.88

Record COc1ccc(-c2nc3c(n2C(C)C)[C@@]2(C(=O)Nc4cc(Cl)ccc42)N(c2cc(Cl)ccc2C)C3=O)c(OC)c1 [Example S-9] . Reported Vd: 0.968

----------
experiment: Pharmacokinetics in ICR mice after intravenous and intragastric administration; type: in vivo; conditions: male, ICR, mouse, plasma, po, 5 mg/kg, PO 5 mg/kg, ICR mice, individual animal; read-out: AUC(0-t)
Threshold check on AUC(0-t): at or above 3000 ng·h/mL gives Satisfied, strictly below gives Not satisfied.

1. COc1ccc(-c2nc3c(n2C(C)C)[C@@]2(C(=O)Nc4cc(Cl)ccc42)N(c2cc(Cl)ccc2C)C3=O)c(OC)c1 | Satisfied
2. COc1ncc(-c2nc3c(n2C(C)C)[C@@]2(C(=O)Nc4cc(Cl)ccc42)N(c2cc(Cl)ccc2C)C3=O)c(OC)n1 | Satisfied
3. COc1cc(OC)c(-c2nc3c(n2C(C)C)[C@@]2(C(=O)Nc4cc(Cl)ccc42)N(c2cc(Cl)ccc2C)C3=O)cn1 | Satisfied
4. COc1cc(N(C)C)ccc1-c1nc2c(n1C(C)C)[C@@]1(C(=O)Nc3cc(Cl)ccc31)N(c1cc(Cl)ccc1C)C2=O | Satisfied

Consider the additional molecule presented here.
Request: Hi team, for COc1ncc(-c2nc3c(n2C(C)C)[C@H](c2ccc(Cl)cc2)N(c2cc(Cl)cn(C)c2=O)C3=O)c(OC)n1 [HDM201, reference compound] , is the recorded AUC(0-t) at or above 3000 ng·h/mL?
Response: Not satisfied

----------
Documented Cmax across a set of compounds
assay: Pharmacokinetics in ICR mice after intravenous and intragastric administration; assay type: in vivo; settings: male, ICR, mouse, plasma, po, 5 mg/kg, ICR mice, PO 5 mg/kg, individual animals 401-403; read-out: Cmax
Give your result in ng/mL as a bare value.

Use these answered entries as a reference point.
1) COc1cc(OC(C)C)ncc1-c1nc2c(n1C(C)C)[C@@]1(C(=O)Nc3cc(Cl)ccc31)N(c1cc(Cl)cnc1C)C2=O | 5880
2) COc1nc(OCCF)ncc1-c1nc2c(n1C(C)C)[C@@]1(C(=O)Nc3cc(Cl)ccc31)N(c1cc(Cl)ccc1C)C2=O | 4250
3) COc1nc(C2CC2)ncc1-c1nc2c(n1C(C)C)[C@@]1(C(=O)Nc3cc(Cl)ccc31)N(c1cc(Cl)cnc1C)C2=O | 1440

get_value(item= COc1nc(N(C)C)ncc1-c1nc2c(n1C(C)C)[C@@]1(C(=O)Nc3cc(Cl)ccc31)N(c1cc(Cl)cnc1C)C2=O , readout=Cmax) returns 2160

Just so you know, measured Cmax for COc1cc(C(F)(F)F)ncc1-c1nc2c(n1C(C)C)[C@@]1(C(=O)Nc3cc(Cl)ccc31)N(c1cc(Cl)ccc1C)C2=O came out at 1240

----------
The entries below are paired with their reported Tmax.
assay: Pharmacokinetics in ICR mice after intravenous and intragastric administration; assay type: in vivo; settings: male, ICR, mouse, plasma, iv, 2 mg/kg, ICR mice, IV 2 mg/kg, mean of 3 animals; read-out: Tmax
Value expressed in min; do not type the unit.

Answered examples (2):
1) COc1cc(OC(C)C)ncc1-c1nc2c(n1C(C)C)[C@@]1(C(=O)Nc3cc(Cl)ccc31)N(c1cc(Cl)ccc1C)C2=O | 13.3
2) COc1cc(C(F)(F)F)ncc1-c1nc2c(n1C(C)C)[C@@]1(C(=O)Nc3cc(Cl)ccc31)N(c1cc(Cl)ccc1C)C2=O | 4.98

Next:
Consider COc1cc(OC)c(-c2nc3c(n2C(C)C)[C@@]2(C(=O)Nc4cc(Cl)ccc42)N(c2cc(Cl)ccc2F)C3=O)cn1 . Its measured Tmax is 4.98

----------
assay: Pharmacokinetics in ICR mice after intravenous and intragastric administration; format: in vivo; conditions: male, ICR, mouse, plasma, iv, 2 mg/kg, IV 2 mg/kg, ICR mice, individual animal; read-out: Vz
MEASURED PROPERTY: Vd (L/kg)
# output: bare number, implied unit L/kg

Field: example entries. Status: answers known.
1) COc1cc(OC)c(-c2nc3c(n2C(C)C)[C@@]2(C(=O)Nc4cc(Cl)ccc42)N(c2cc(Cl)ccc2C)C3=O)cn1 [Example S-11] | 1.02
2) COc1ncc(-c2nc3c(n2C(C)C)[C@@]2(C(=O)Nc4cc(Cl)ccc42)N(c2cccc(Cl)c2)C3=O)c(OC)n1 [Example S-1] | 3.92
3) COc1ncc(-c2nc3c(n2C(C)C)[C@H](c2ccc(Cl)cc2)N(c2cc(Cl)cn(C)c2=O)C3=O)c(OC)n1 [HDM201, reference compound] | 2.46
4) COc1ccc(-c2nc3c(n2C(C)C)[C@@]2(C(=O)Nc4cc(Cl)ccc42)N(c2cc(Cl)ccc2C)C3=O)c(OC)c1 [Example S-9] | 1.05
5) COc1ncc(-c2nc3c(n2C(C)C)[C@@]2(C(=O)Nc4cc(Cl)ccc42)N(c2cc(Cl)ccc2C)C3=O)c(OC)n1 [Example S-2] | 1.55

Next:
Looking up COc1cc(N(C)C)ccc1-c1nc2c(n1C(C)C)[C@@]1(C(=O)Nc3cc(Cl)ccc31)N(c1cc(Cl)ccc1C)C2=O [Example S-23] , I see its Vd listed as 0.51

----------
The following molecules are shown together with reported MRT last values.
assay: Pharmacokinetics in ICR mice after intravenous and intragastric administration; assay type: in vivo; conditions: male, ICR, mouse, plasma, iv, 2 mg/kg, ICR mice, IV 2 mg/kg, mean of 3 animals; read-out: MRT(0-t)
Give the number; h is assumed, so skip it.

1) COc1cc(C2CC2)ncc1-c1nc2c(n1C(C)C)[C@@]1(C(=O)Nc3cc(Cl)ccc31)N(c1cc(Cl)ccc1C)C2=O [Example S-103] | 2.85
2) COc1cc(OC(C)C)ncc1-c1nc2c(n1C(C)C)[C@@]1(C(=O)Nc3cc(Cl)ccc31)N(c1cc(Cl)cnc1C)C2=O [Example S-137] | 1.95

Lab note: measured MRT last of COc1nc(OCCF)ncc1-c1nc2c(n1C(C)C)[C@@]1(C(=O)Nc3cc(Cl)ccc31)N(c1cc(Cl)ccc1C)C2=O [Example S-140] was 2.42

Just so you know, measured MRT last for CCOc1cc(OC)c(-c2nc3c(n2C(C)C)[C@@]2(C(=O)Nc4cc(Cl)ccc42)N(c2cc(Cl)cnc2C)C3=O)cn1 [Example S-96] came out at 1.47

The reported MRT last of the molecule CCOc1ncc(-c2nc3c(n2C(C)C)[C@@]2(C(=O)Nc4cc(Cl)ccc42)N(c2cc(Cl)cnc2C)C3=O)c(OC)n1 [Example S-134] was 1.32

get_value(item= COc1cc(C(F)(F)F)ncc1-c1nc2c(n1C(C)C)[C@@]1(C(=O)Nc3cc(Cl)ccc31)N(c1cc(Cl)ccc1C)C2=O [Example S-138] , readout=MRT last) returns 3.42

MRT last in this record for COc1ncc(-c2nc3c(n2C(C)C)[C@@]2(C(=O)Nc4cc(Cl)ccc42)N(c2cc(F)cc(Cl)c2)C3=O)c(OC)n1 [Example S-45] : 1.35
